test system: house fly (Musca domestica); assay: Effect of the active ingredient:synergist ratio on the synergistic activity (flies); details: house fly, in vivo, topical_or_ocular
measurement_type: 24 hour mortality (%)
Answer format reminder: number followed by unit.

Batch request: 24 hour mortality (%) per item, same order as input.
1. CC#CCOC(CC)c1cccc2ccccc12 (stereo not shown) [Compound 454, 1-[1-(2-butynyloxy)-propyl]-naphthalene]
2. CC#CCOCc1ccc(OC)c(OC)c1
3. C#CCOC(=O)c1ccc2c(c1)OCO2 [Compound 501, 2-Propynyl 1,3-benzodioxol-5-carboxylate]
4. CC#CCOC(C)c1ccc(OC)c(OC)c1 (stereo not shown)
5. CC#CCOCc1c(Cl)cccc1Cl
6. CC#CCO[C@H](C)c1ccc2ccccc2c1

["75%", "100%", "80%", "100%", "93%", "77%"]

Request the reported 24 hour mortality (%) associated with `CC#CCOCc1ccc2c(c1)OCO2`
95%
